Sourced from patent US20250304667A1

target: human complement Component 5 (C5) (human, UniProt P01031 19-1676, limits assumed); test: cell-based or functional assay
Sequence (P01031 19-1676 limits assumed): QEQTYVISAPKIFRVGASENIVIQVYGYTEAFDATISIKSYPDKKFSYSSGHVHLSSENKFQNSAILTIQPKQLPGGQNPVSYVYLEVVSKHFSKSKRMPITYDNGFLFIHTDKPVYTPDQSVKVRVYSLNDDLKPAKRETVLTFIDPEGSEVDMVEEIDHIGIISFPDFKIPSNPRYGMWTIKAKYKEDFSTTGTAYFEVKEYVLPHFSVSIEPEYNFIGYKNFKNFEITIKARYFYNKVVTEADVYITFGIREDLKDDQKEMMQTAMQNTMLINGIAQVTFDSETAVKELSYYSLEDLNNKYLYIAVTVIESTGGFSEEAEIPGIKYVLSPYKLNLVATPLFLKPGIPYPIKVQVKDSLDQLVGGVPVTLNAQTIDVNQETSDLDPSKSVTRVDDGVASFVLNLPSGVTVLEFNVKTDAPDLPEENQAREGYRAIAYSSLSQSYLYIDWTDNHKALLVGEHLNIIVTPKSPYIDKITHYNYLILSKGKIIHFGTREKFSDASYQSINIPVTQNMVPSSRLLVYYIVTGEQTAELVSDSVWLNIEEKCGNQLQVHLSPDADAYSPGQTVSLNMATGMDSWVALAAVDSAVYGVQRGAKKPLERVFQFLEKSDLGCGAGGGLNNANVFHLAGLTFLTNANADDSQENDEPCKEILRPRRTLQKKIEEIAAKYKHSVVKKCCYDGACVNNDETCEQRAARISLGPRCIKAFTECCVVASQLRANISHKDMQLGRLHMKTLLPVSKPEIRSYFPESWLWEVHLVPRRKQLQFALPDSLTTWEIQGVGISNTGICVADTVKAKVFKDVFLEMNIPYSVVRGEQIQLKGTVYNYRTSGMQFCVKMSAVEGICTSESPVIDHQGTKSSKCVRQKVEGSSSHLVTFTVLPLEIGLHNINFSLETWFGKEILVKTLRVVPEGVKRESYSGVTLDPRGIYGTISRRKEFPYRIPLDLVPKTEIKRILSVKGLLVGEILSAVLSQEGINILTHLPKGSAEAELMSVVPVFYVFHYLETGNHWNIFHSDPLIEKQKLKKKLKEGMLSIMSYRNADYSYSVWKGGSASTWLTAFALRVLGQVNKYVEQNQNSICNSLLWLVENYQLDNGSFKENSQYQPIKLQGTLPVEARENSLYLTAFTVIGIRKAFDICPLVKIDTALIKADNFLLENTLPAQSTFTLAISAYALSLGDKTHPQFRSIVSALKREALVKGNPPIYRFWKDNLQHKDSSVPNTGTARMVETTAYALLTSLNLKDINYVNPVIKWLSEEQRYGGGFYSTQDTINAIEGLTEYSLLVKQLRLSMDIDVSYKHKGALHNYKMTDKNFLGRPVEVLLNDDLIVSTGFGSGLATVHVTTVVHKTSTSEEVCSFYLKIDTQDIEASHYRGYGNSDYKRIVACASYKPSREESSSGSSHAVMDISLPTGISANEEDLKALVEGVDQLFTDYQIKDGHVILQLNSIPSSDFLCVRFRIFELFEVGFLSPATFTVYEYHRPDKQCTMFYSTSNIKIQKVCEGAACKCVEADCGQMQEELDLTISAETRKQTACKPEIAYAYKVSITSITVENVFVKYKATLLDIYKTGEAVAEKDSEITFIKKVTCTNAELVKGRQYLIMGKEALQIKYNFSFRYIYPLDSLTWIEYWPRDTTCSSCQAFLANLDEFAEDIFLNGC
measurement.kind: IC50 (read off the curve), OD (450nM)

Please review the entries below; each comes with its answer.
binder: H3L3-IgG (antibody, V domains shown) VH: QVQLVQSGAEVKKPGASVKVSCKASGYTFTDEYMNWVRQAPGQSLEWMGYINPNNGGADYNPSLKSRVTISVDQSISTAYMELSRLRSDDTAVYFCARLGYSNPYFDFWGQGTLVTVSS VL: DIVLTQSPSFLSASVGDRVTITCQASQDVNTAVAWYLQKPGKSPKLLIYWASTRHTGVPARFTGSGSGTDYTLTISSLQPEDFAVYFCQQHHVSPWTFGGGTKVEIK
IC50 (read off the curve), OD (450nM): ~0.8 µg/mL

binder: H1L4-IgG (antibody, V domains shown) VH: QVQLVQSGAEVKKPGASVKVSCKASGYTFTDEYMNWVRQAPGQSLEWMGYINPNNGGADYNQKFQGRVTMTVDQSISTAYMELSRLRSDDTAVYFCARLGYSNPYFDFWGQGTLVTVSS VL: DIVLTQSPATLSLSPGERATLSCRASQDVNTAVAWYQQKPGKSPKLLIYWASTRHTGVPARFTGSGSGTDYTLTISSLQPEDFAVYFCQQHHVSPWTFGGGTKVEIK
IC50 (read off the curve), OD (450nM): ~0.5 µg/mL

Sample H3L4-IgG (antibody, V domains shown) VH: QVQLVQSGAEVKKPGASVKVSCKASGYTFTDEYMNWVRQAPGQSLEWMGYINPNNGGADYNPSLKSRVTISVDQSISTAYMELSRLRSDDTAVYFCARLGYSNPYFDFWGQGTLVTVSS VL: DIVLTQSPATLSLSPGERATLSCRASQDVNTAVAWYQQKPGKSPKLLIYWASTRHTGVPARFTGSGSGTDYTLTISSLQPEDFAVYFCQQHHVSPWTFGGGTKVEIK — what was its IC50 (read off the curve), OD (450nM)?
~0.8 µg/mL

Sample H5L4-IgG (antibody, V domains shown) VH: QVQLKQSGAEVKKPGASVKVSCKASGYTFTDEYMNWVRQAPGKSLEWMGYINPNNGGADYNQKFQGRVTMTVDQSISTAYMELSRLRSDDTAVYFCARLGYSNPYFDFWGQGTLVTVSS VL: DIVLTQSPATLSLSPGERATLSCRASQDVNTAVAWYQQKPGKSPKLLIYWASTRHTGVPARFTGSGSGTDYTLTISSLQPEDFAVYFCQQHHVSPWTFGGGTKVEIK — what was its IC50 (read off the curve), OD (450nM)?
~0.5 µg/mL
